Values from PubChem BioAssay

# measured-on: Cell division control protein 42 homolog (Homo sapiens)
# method-notes: inhibition of fluorescent GTP binding to wildtype Cdc42 – biochemical, multiplex bead flow cytometry, Bodipy-FL-GTP, dose response (AID 1334)
# condition-set: bead-based flow cytometry, Bodipy-FL-GTP binding to GST-Cdc42; at 100 µM (top of the series) unless noted
Measured potencies and affinities stand elsewhere.
Kindly state fluorescence, percent of control (lower = inhibition) for each of the entries shown.
Report only the number, with the unit % understood.

[in] GET /values?readout=fluorescence, percent of control (lower = inhibition)&item= `CCOc1ccc2nc(SCc3ccc(CC(=O)O)cc3)c(C#N)cc2c1`
[out] 28.4

[in] GET /values?readout=fluorescence, percent of control (lower = inhibition)&item= `CCCN1C(=O)/C(=C\C=C2\N(CC)c3ccccc3C2(C)C)SC1=S`
[out] 104

[in] GET /values?readout=fluorescence, percent of control (lower = inhibition)&item= `Cc1ccc(-n2c(=O)cc(N3CCN(C(=O)c4ccco4)CC3)[nH]c2=O)cc1`
[out] 36.6

[in] GET /values?readout=fluorescence, percent of control (lower = inhibition)&item= `COCCn1c(=S)[nH]c2cc(C(=O)N3CCc4ccccc4C3)ccc2c1=O`
[out] 35.6

[in] GET /values?readout=fluorescence, percent of control (lower = inhibition)&item= `CC(C)c1ccc(C(=O)NC2=NCCS2)cc1`
[out] 50.5

[in] GET /values?readout=fluorescence, percent of control (lower = inhibition)&item= `Cc1ccc(OCCn2c(SCCC(=O)O)nc3ccccc32)cc1`
[out] 61.3

[in] GET /values?readout=fluorescence, percent of control (lower = inhibition)&item= `COc1ccc(C(=O)N/N=c2\oc3ccccc3cc2C(N)=O)cc1`
[out] 36.1

[in] GET /values?readout=fluorescence, percent of control (lower = inhibition)&item= `C/C(=N\Nc1cc(C)nc(-c2ccccc2)n1)c1cccc([N+](=O)[O-])c1`
[out] 33.6

[in] GET /values?readout=fluorescence, percent of control (lower = inhibition)&item= `CCOc1ccccc1NC(=O)CSc1ccc2nnc(-c3cccnc3)n2n1`
[out] 29.2

[in] GET /values?readout=fluorescence, percent of control (lower = inhibition)&item= O=C(O)C1C2C=CC(C2)C1C(=O)N1CCOCC1 (centres undefined)
[out] 53.2

[in] GET /values?readout=fluorescence, percent of control (lower = inhibition)&item= `Cc1nc(N/N=C/c2ccc(O)cc2)c2cnn(-c3ccccc3)c2n1`
[out] 30.2

[in] GET /values?readout=fluorescence, percent of control (lower = inhibition)&item= `C=CCN1C(=O)/C(=C/C=C2/N(CC)c3ccc(S(=O)(=O)N(C)C)cc3N2CC)SC1=S`
[out] 56.2

[in] GET /values?readout=fluorescence, percent of control (lower = inhibition)&item= CCOc1ccc(C2C(C(=O)O)CCC(=O)N2C2CCCCC2)cc1 (centres undefined)
[out] 23

[in] GET /values?readout=fluorescence, percent of control (lower = inhibition)&item= `COc1cc(CCNc2ccc3nnc(-c4ccccc4)n3n2)cc(OC)c1OC`
[out] 34.8

[in] GET /values?readout=fluorescence, percent of control (lower = inhibition)&item= `CN1/C(=C\C=C(/C#N)C(=O)Nc2ccc(Cl)cc2)C(C)(C)c2ccccc21`
[out] 76.8

[in] GET /values?readout=fluorescence, percent of control (lower = inhibition)&item= `COc1ccccc1NCc1sc(C(=O)O)cc1C`
[out] 64.9

[in] GET /values?readout=fluorescence, percent of control (lower = inhibition)&item= `Cc1cc(Cl)ccc1OCC(=O)OCC(=O)Nc1ccc(F)c([N+](=O)[O-])c1`
[out] 53

[in] GET /values?readout=fluorescence, percent of control (lower = inhibition)&item= `Cc1ccc(C)c(OCCn2cc(C(=O)O)c3ccccc32)c1`
[out] 47.5

[in] GET /values?readout=fluorescence, percent of control (lower = inhibition)&item= `Fc1cccc(CSc2ccc3nnc(-c4cccnc4)n3n2)c1`
[out] 33.8

[in] GET /values?readout=fluorescence, percent of control (lower = inhibition)&item= `CCN1CCN(c2nc3c(c(=O)n(C)c(=O)n3C)n2Cc2cccc3ccccc23)CC1`
[out] 43.1

[in] GET /values?readout=fluorescence, percent of control (lower = inhibition)&item= `Cn1nnnc1SCc1ccc(C(=O)Nc2nccs2)cc1`
[out] 36.8

[in] GET /values?readout=fluorescence, percent of control (lower = inhibition)&item= `CCc1ccc(Sc2cc(C(=O)O)c3ccccc3n2)cc1`
[out] 57.8

[in] GET /values?readout=fluorescence, percent of control (lower = inhibition)&item= `Cc1cc(C)n(Cc2n[nH]c(=S)n2Cc2ccccc2)n1`
[out] 106

[in] GET /values?readout=fluorescence, percent of control (lower = inhibition)&item= `CCOc1ccc(NC(=S)N=Nc2c(O)[nH]c3ccccc23)cc1`
[out] 35.5

[in] GET /values?readout=fluorescence, percent of control (lower = inhibition)&item= `CN(C)c1ccc(/C=C/c2ccc3c4ccccc4ccc3[n+]2-c2ccccc2)cc1`
[out] 40

[in] GET /values?readout=fluorescence, percent of control (lower = inhibition)&item= `O=C(CCc1ccc(S(=O)(=O)NCCc2ccccc2)cc1)Nc1ccc2c(c1)OCO2`
[out] 52.3

[in] GET /values?readout=fluorescence, percent of control (lower = inhibition)&item= `COc1cc(C(=S)NCc2ccccc2)cc(Br)c1O`
[out] 23.5

[in] GET /values?readout=fluorescence, percent of control (lower = inhibition)&item= `O=C(O)/C=C/c1cn(Cc2ccccc2)nc1-c1ccc(Cl)cc1`
[out] 34.9

###

Kindly state binding (% of control) for each of the entries shown.
# System: anti-desmoglein-3 scFv antibody binding to human DSG3
# method-notes: blockers of pathogenic pemphigus antibody–desmoglein-3 binding – biochemical, validation compound set, bead-based, flow cytometry, pilot screen (AID 588368);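 further: signal is the median channel fluorescence of bead-bound GFP antibody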
# condition-set: Protein G beads, DSG3-Fc, scFv-GFP binding, at 10 µM, stronger effect = lower value
Report only the number, with the unit % understood.

[in] GET /values?readout=binding (% of control)&item= COc1ccc2c(c1OC)C(=O)OC2C1c2c(cc3c(c2OC)OCO3)CCN1C (centres undefined)
[out] 96.4

[in] GET /values?readout=binding (% of control)&item= `Cc1ccc(-c2nn(-c3cccc(F)c3)cc2CN2CCN(c3ccccn3)CC2)o1`
[out] 101

[in] GET /values?readout=binding (% of control)&item= COc1cccc(NC(=O)C2CC(=O)OC23CCOC(C)(C)C3)c1 (centres undefined)
[out] 101

[in] GET /values?readout=binding (% of control)&item= `COC(=O)c1cc(OC)c(OC)cc1NC(=O)CN1C(=O)c2ccccc2C1=O`
[out] 98.4

[in] GET /values?readout=binding (% of control)&item= `Cc1ccc2c(c1)c(C)cc(=O)n2CCC(=O)O`
[out] 101

[in] GET /values?readout=binding (% of control)&item= `COc1ccc(C(=O)c2oc3ccc(Br)cc3c2NC(C)=O)cc1`
[out] 96.9

[in] GET /values?readout=binding (% of control)&item= CCCCCCCC(=O)OCC(O)CO (centres undefined)
[out] 98.7

[in] GET /values?readout=binding (% of control)&item= `C[C@]12CC[C@@H]3c4ccc(O)cc4CC[C@H]3[C@@H]1CC[C@@H]2OC(=O)CCC(=O)O`
[out] 105

[in] GET /values?readout=binding (% of control)&item= CC1(C)CC(C(CC(=O)O)c2ccccc2)CCO1 (centres undefined)
[out] 95.7

[in] GET /values?readout=binding (% of control)&item= `COc1cc(C(=O)NCCc2c[nH]c3ccccc23)ccc1OCc1c(C)noc1C`
[out] 107

[in] GET /values?readout=binding (% of control)&item= `NNC(=O)c1ccncc1`
[out] 98.4

[in] GET /values?readout=binding (% of control)&item= `CN1CCN(CC/C=C2/c3ccccc3Sc3ccc(S(=O)(=O)N(C)C)cc32)CC1`
[out] 84.3

[in] GET /values?readout=binding (% of control)&item= `c1ccc(Cn2nnc3cnccc32)cc1`
[out] 102

[in] GET /values?readout=binding (% of control)&item= COc1ccc(CN2CCCCC2C(=O)Nc2ccc(OC)c(OCC(C)C)c2)cc1OC (centres undefined)
[out] 95.9

[in] GET /values?readout=binding (% of control)&item= `CCCCC[C@H](O)/C=C/C1=C(CCCCCCC(=O)O)C(=O)CC1`
[out] 101

[in] GET /values?readout=binding (% of control)&item= CC[C@]1(O)CC2CN(CCc3c([nH]c4ccccc34)[C@@](C(=O)OC)(c3cc4c(cc3OC)N(C=O)[C@H]3[C@@](O)(C(=O)OC)[C@H](OC(C)=O)[C@]5(CC)C=CCN6CC[C@]43[C@@H]65)C2)C1 (some centres undefined)
[out] 97.2

[in] GET /values?readout=binding (% of control)&item= CC(CN1c2ccccc2Sc2ccccc21)N(C)C (centres undefined)
[out] 97.2

[in] GET /values?readout=binding (% of control)&item= `O=C(NCc1ccc(N2CCCC2=O)cc1)c1ccc(F)cc1`
[out] 107

[in] GET /values?readout=binding (% of control)&item= CN(Cc1c(C(=O)N(C)Cc2ccccc2)nc2ccccn12)CC1Cc2ccccc2O1 (centres undefined)
[out] 98.2

[in] GET /values?readout=binding (% of control)&item= c1ccc(-c2ccc(C(c3ccccc3)n3ccnc3)cc2)cc1 (centres undefined)
[out] 101

[in] GET /values?readout=binding (% of control)&item= `COc1ccccc1NC(=O)Cn1c(C)cc(=O)c2cccc(OC)c21`
[out] 103

[in] GET /values?readout=binding (% of control)&item= O=C(O)CCCN1C(=O)NC2NC(=O)NC21 (centres undefined)
[out] 98.4

[in] GET /values?readout=binding (% of control)&item= COc1ccc2c(c1OC)C(C1c3c(cc4c(c3OC)OCO4)CCN1C)OC2=O (centres undefined)
[out] 98.9

[in] GET /values?readout=binding (% of control)&item= Cc1ccc2c(c1)c1c3n2CCCN(Cc2ccccc2)C3CCC1 (centres undefined)
[out] 102
